B1: Azoarcus group I ribozyme (parent)
chain: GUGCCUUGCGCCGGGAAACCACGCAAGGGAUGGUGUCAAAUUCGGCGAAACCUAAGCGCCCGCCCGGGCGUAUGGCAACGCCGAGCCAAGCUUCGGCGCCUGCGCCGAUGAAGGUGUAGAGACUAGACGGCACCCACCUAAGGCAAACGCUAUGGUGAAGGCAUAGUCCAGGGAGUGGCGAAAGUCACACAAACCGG

# Variants of: B1
# test_method_notes: reverse-splicing fitness (ratio to wild type); higher = more active; in vitro selection; Mg2+ level not given
As shown below, each of these variants has a reported reverse-splicing fitness value.

       variant_annotation           reported_metric   result
0  C82A A120U C169U U176G  reverse-splicing fitness  0.00156

[ask] Form field: reported reverse-splicing fitness of C82U A145U C150G U176G
[reply] 0.0104

[ask] Form field: reported reverse-splicing fitness of C82G A111U U176C
[reply] 0.259

[ask] Form field: reported reverse-splicing fitness of C82A A111U A120C A145U C150U C169G U176C
[reply] 0.0244
